# testSystem: T1, mouse SPNS2 (mouse, UniProt Q91VM4 1-549)
# T1 sequence: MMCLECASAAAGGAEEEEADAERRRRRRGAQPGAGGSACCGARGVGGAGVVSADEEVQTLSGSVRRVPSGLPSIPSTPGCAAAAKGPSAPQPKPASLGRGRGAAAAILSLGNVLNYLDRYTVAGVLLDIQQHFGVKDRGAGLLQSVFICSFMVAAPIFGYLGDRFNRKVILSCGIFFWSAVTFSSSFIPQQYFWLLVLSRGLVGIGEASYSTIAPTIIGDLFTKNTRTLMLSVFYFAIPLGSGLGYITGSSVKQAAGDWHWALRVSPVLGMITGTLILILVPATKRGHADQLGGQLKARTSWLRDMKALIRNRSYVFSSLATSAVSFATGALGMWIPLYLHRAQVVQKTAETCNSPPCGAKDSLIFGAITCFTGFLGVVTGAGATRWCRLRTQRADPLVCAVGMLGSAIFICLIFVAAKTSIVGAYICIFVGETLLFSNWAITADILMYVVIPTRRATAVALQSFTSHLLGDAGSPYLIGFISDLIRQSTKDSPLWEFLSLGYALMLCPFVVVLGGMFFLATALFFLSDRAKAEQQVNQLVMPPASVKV
# protocolText: cell-based or functional assay
In this section we review reported pIC50, S1P transport inhibition (LC-MS/MS of S1P) values for a set of binders.

# example entries with known answers
[
  {
    "binder": "80-1104A (antibody, IgG2b, V domains shown) VH: EVQLVETGGGLVQPGSSLKLSCSTSGFTFSETWMSWVRQAPGKGLEWVGLIKDKNSNYEANYAESVKGRFTISRDDSKRRVYLQMYTLRDQDTATYYCTSHEDFYYYSSYYFDYWGQGVMVTVSS VL: DIVLTQSPATLSVTPGESVSLSCRASQGISTSIHWYQQKSNESPRLLIKYASQSMSGIPSRFSGSGSGTDFTLRINRVESEDFSVYYCQQSYNLPLTFGSGTKLEIKR",
    "resultValue": "8 pIC50 (M)"
  },
  {
    "binder": "33-0503E (antibody, IgG2b, V domains shown) VH: EVQLVESGGGLVRPGGSMKLSCGASGFIFDNYYMTWVRQAPTKGLEWVASISSSGGNTYYRDSVRGRFTISRDNAGNTLSLQMGSLRAEDTATYHCAKEGYRGRYFDYWGQGVMVTVSS VL: QVVLTQPNSVSTNLGSTVKLSCKRTTGNIGSNYVNWYQQHEGRSPTTMIYRDDERPDGVPDRFSGSIDRSSNSALLTINNVQTEDEAEYFCQSYSSGIIFGGGTKLTVL",
    "resultValue": "7.7 pIC50 (M)"
  }
]

Look at this binder and give its reported pIC50, S1P transport inhibition (LC-MS/MS of S1P). 89-1207D (antibody, IgG2b, V domains shown) VH: EVQLVGSGGGLVQPGRSMKLSCEASGFTFSNHYMAWVRQAPTKGLEWVATISTGGGNTYYRDSVKGRFTISRDNARSILSLQMDSLRSEDTATYYCARQDYSNYMGGFAYWGQGTLVTVSS VL: QFVLTQPNSVSTNLGSTVKLSCTRSIGNIGNNYVNWYKQYEGRSPTTMIYRDDERPDGVPDRFSGSIDRSSNSALLTINNVQTEDEADYFCQSFSSGMFIFGGGTKLTVL
7.8 pIC50 (M)

Endpoint output: pIC50, S1P transport inhibition (LC-MS/MS of S1P) of 96-1403F (antibody, IgG2b, V domains shown) VH: EVQLVETGGGLVRPGSSLKLSCATSGFTFSDTWMSWVRQAPGKGLEWVALIKDKNSNSEANYAESIKGRFTISRDDSKSRVYLQMNTLRDQDTATYYCTRHEDFYYYSGYYFDYWGQGVMVTVSS VL: DIVLTQSPPTLSVTPGESVSLSCRASQGISTSIHWYQQRSNESPRLLIKYASQSIAGIPSRFSGSGSGTDFILSINRVESEDFSVYYCQQTYSLPLTFGPGTKLEVKR . Value?
7.7 pIC50 (M)

Which measured pIC50, S1P transport inhibition (LC-MS/MS of S1P) value corresponds to 50-0704C (antibody, IgG2b, V domains shown) VH: EVQLVGSGGGLVQPGRSMKLSCEASGFTFSNHYMAWVRQAPTKGLEWVATISTGGGNTYYRDSVKGRFTISRDNARSTLSLQMDSLRSEDTATYYCARQDYSNYMGGFAYWGQGTLVTVSS VL: QFVLTQPNSVSTNLGSTVKLSCTRSIGNIGNNYVNWYKQYEGRSPTTMIYRDDERPDGVPDRFSGSIDRSSNSALLTINSVQTEDEADYFCQSFSSGIFIFGGGTKLTVL ?
7.8 pIC50 (M)

Values from patent US20210147523A1
